binding by ELISA relative to parental values by entry
target: T1, purified human glycophorin A protein (Sigma, cat # G5017) (human, UniProt P02724 20-150)
T1 construct: mature; also called Sigma hGPA; Sigma GPA
T1 sequence (looked up): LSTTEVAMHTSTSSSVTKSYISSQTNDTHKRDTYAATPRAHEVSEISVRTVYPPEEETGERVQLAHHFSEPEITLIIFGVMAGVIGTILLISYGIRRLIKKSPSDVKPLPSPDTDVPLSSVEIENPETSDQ
measurement.notes: ELISA, native hGPA
property.label: binding by ELISA relative to parental

binder | reading
TPP-5335 (Fab, V domains shown, also called VH: (Q97A)) VH: EVQLVQSGAEVKKPGASVKVSCKASGYTFTTYTIHWVRQAPGQGLEWIGYINPSSDYTRYNPKFKDRVTLTTDKSTSTAYMELRSLRSDDTAVYYCATGTRDYWGQGTTVTVSS VL: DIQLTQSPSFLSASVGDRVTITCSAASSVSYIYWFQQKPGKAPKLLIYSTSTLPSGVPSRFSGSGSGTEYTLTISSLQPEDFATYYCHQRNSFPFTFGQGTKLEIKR | 0.77
TPP-5348 (Fab, V domains shown, also called VL: (S49A)) VH: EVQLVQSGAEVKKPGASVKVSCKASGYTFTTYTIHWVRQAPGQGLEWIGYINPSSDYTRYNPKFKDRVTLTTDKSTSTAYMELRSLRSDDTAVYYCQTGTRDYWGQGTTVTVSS VL: DIQLTQSPSFLSASVGDRVTITCSAASSVSYIYWFQQKPGKAPKLLIYATSTLPSGVPSRFSGSGSGTEYTLTISSLQPEDFATYYCHQRNSFPFTFGQGTKLEIKR | 1.62
TPP-5326 (Fab, V domains shown, also called VH: (N61A)) VH: EVQLVQSGAEVKKPGASVKVSCKASGYTFTTYTIHWVRQAPGQGLEWIGYINPSSDYTRYAPKFKDRVTLTTDKSTSTAYMELRSLRSDDTAVYYCQTGTRDYWGQGTTVTVSS VL: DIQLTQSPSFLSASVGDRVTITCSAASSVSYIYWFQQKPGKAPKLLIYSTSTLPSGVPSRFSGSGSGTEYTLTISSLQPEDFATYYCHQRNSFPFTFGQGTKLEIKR | 0.56
TPP-5344 (Fab, V domains shown, also called VL: (V29I)) VH: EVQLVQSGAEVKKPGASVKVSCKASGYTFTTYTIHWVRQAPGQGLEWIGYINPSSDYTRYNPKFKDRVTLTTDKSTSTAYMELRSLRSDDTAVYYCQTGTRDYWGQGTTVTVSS VL: DIQLTQSPSFLSASVGDRVTITCSAASSISYIYWFQQKPGKAPKLLIYSTSTLPSGVPSRFSGSGSGTEYTLTISSLQPEDFATYYCHQRNSFPFTFGQGTKLEIKR | 0.84
TPP-4935 (Fab, V domains shown, also called Parental; hu6C12-24 parental Fab) VH: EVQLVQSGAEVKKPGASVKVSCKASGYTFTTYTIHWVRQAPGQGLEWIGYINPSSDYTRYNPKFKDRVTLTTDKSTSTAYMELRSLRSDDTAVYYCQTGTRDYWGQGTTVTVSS VL: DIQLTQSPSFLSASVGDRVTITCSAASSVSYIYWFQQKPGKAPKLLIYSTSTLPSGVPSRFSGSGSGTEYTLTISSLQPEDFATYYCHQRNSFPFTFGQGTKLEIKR | 1
TPP-5345 (Fab, V domains shown, also called VL: (I32L)) VH: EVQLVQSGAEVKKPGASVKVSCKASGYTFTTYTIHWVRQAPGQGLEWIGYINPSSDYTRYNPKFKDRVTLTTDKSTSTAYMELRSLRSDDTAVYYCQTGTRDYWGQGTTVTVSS VL: DIQLTQSPSFLSASVGDRVTITCSAASSVSYLYWFQQKPGKAPKLLIYSTSTLPSGVPSRFSGSGSGTEYTLTISSLQPEDFATYYCHQRNSFPFTFGQGTKLEIKR | 0.6
TPP-5333 (Fab, V domains shown, also called VH: (R84S)) VH: EVQLVQSGAEVKKPGASVKVSCKASGYTFTTYTIHWVRQAPGQGLEWIGYINPSSDYTRYNPKFKDRVTLTTDKSTSTAYMELSSLRSDDTAVYYCQTGTRDYWGQGTTVTVSS VL: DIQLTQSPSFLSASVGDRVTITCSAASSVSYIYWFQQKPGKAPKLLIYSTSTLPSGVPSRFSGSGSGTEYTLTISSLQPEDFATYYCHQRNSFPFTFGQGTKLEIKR | 0.92
TPP-5320 (Fab, V domains shown, also called VH: (I48M)) VH: EVQLVQSGAEVKKPGASVKVSCKASGYTFTTYTIHWVRQAPGQGLEWMGYINPSSDYTRYNPKFKDRVTLTTDKSTSTAYMELRSLRSDDTAVYYCQTGTRDYWGQGTTVTVSS VL: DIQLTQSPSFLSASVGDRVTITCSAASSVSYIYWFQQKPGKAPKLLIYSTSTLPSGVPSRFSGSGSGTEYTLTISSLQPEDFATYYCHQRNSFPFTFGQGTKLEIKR | 1.24
TPP-5354 (Fab, V domains shown, also called VL: (F93Y)) VH: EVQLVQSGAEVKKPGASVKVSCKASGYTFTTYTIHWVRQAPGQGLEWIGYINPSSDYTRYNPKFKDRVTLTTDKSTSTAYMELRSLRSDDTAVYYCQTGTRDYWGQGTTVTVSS VL: DIQLTQSPSFLSASVGDRVTITCSAASSVSYIYWFQQKPGKAPKLLIYSTSTLPSGVPSRFSGSGSGTEYTLTISSLQPEDFATYYCHQRNSYPFTFGQGTKLEIKR | 0.33
TPP-5328 (Fab, V domains shown, also called VH: (K65Q)) VH: EVQLVQSGAEVKKPGASVKVSCKASGYTFTTYTIHWVRQAPGQGLEWIGYINPSSDYTRYNPKFQDRVTLTTDKSTSTAYMELRSLRSDDTAVYYCQTGTRDYWGQGTTVTVSS VL: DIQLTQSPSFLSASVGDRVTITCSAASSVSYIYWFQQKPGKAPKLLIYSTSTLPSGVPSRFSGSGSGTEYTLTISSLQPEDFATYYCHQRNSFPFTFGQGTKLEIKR | 0.89

Value source: patent US20190359687A1
